property_name: melting point

Looking up `NC(=O)CCc1ccnc(-c2nc(=O)c3ccccc3s2)c1` , I see its melting point listed as 237 to 239.7 °C

Measured melting point of `O=c1nc(-c2ccccn2)sc2ccc(OCCCCCCO)cc12` : 135.6 to 137 °C

Reported melting point of `CCCNC(=O)c1ccc(-c2nc(=O)c3ccccc3s2)nc1` : 268 to 268.6 °C

Form field melting point, entry `O=C(O)COc1ccc2sc(-c3ccccn3)nc(=O)c2c1` : 250 °C (dec.)

Input `CC(C)(C)OC(=O)CCCCCOc1ccc2sc(-c3ccccn3)nc(=O)c2c1` . Output melting point: 101.2 to 102.4 °C

----------
Attribute: melting point

CN(C(=O)C1CCCCC1)c1cccc(-c2nc(=O)c3ccccc3s2)n1	184.4 to 185.8 °C

Briefly, melting point measured for `O=c1nc(-c2cc(-c3ccccc3)ccn2)sc2ccccc12` : 164.4 to 164.7 °C

compound `Cc1cccc2c(=O)nc(-c3cccc(C(=O)NCCCCCCN)n3)sc12.Cl` , melting point observed: 240 °C

melting point reading for `O=c1nc(-c2ccnc(N3CCN(c4ccc(F)cc4)CC3)c2)sc2ccccc12` : 233 to 233.6 °C

----------
Counter-ions that a name gives are not always drawn.
Consider the following molecules and their measured melting point readings.

These solved cases illustrate the format of a correct answer.
NCCc1ccnc(-c2nc(=O)c3ccc(Cl)cc3s2)c1 (as salt: trifluoroacetic acid salt) [Example 223]	212 °C (dec.)
O=c1nc(-c2cccc(CNS(=O)(=O)c3ccccc3)n2)sc2ccccc12 [Example 213]	206.7 to 207.5 °C
O=c1nc(-c2cccc(Sc3ncccn3)n2)sc2ccccc12 [Example 270]	245.2 to 245.8 °C
O=c1nc(-c2ccccn2)sc2ccc(OCc3ccccc3)cc12 [Example 121]	198 to 198.8 °C
CC(=O)NCc1cccc(-c2nc(=O)c3ccccc3s2)n1 [Example 204]	199.2 to 200.4 °C

The measured melting point associated with O=c1nc(-c2ccc3ccccc3n2)sc2ccccc12 [Example 3] reads 262.7 to 263.4 °C

Measured melting point of CC(=O)N1CCCC1c1ccnc(-c2nc(=O)c3ccccc3s2)c1 (stereo not drawn) [Example 351] : 206.2 to 207.4 °C

Noted for `CCOP(=O)(CCc1ccnc(-c2nc(=O)c3ccccc3s2)c1)OCC` : its melting point reads 102 to 103.2 °C

Record `CCOP(=O)(CCc1cccc(-c2nc(=O)c3ccccc3s2)n1)OCC` . Reported melting point: 148.8 to 149.8 °C

The molecule CN(CC(=O)O)c1cncc(-c2nc(=O)c3ccccc3s2)n1 [Example 292] showed melting point equal to 283 °C (dec.)

Per the records, this molecule ( CCCCN(C)C(=O)c1cccc(-c2nc(=O)c3ccccc3s2)n1 [Example 103] ) has melting point equal to 80 to 81.6 °C

----------
property_name: melting point

Previously resolved entries follow.
CCN(CC)C(=O)c1cccc(-c2nc(=O)c3ccccc3s2)n1	194 to 194.3 °C
CCCSc1cccc(-c2nc(=O)c3ccccc3s2)n1	124.5 to 125.1 °C
O=C(NCCO)c1cccc(-c2nc(=O)c3ccccc3s2)n1	213.8 to 215.2 °C
CCOC(=O)c1ccnc(-c2nc(=O)c3ccccc3s2)c1	235.9 to 236.7 °C
Cc1cc(CCC(=O)O)cc(-c2nc(=O)c3ccccc3s2)n1	233.2 to 234.7 °C
O=c1nc(-c2c[nH]c3ccccc23)sc2ccccc12	276.5 to 277 °C
O=C(O)CCOCc1cccc(-c2nc(=O)c3ccccc3s2)n1	176.6 to 176.7 °C
O=c1nc(-c2ccc[nH]2)sc2ccccc12	202.4 to 203.2 °C
O=c1nc(-c2cccc(SCc3ccccc3)n2)sc2ccccc12	227 to 228 °C
CC(C)(C)OC(=O)CCc1ccnc(-c2nc(=O)c3ccc(F)cc3s2)c1	137.6 to 138.1 °C

Form field melting point, entry `CC(C)(C)OC(=O)CCc1ccnc(-c2nc(=O)c3ccc(Br)cc3s2)c1` : 172.9 to 173.7 °C

melting point measured on `N#CCCc1ccnc(-c2nc(=O)c3ccccc3s2)c1` = 178.3 to 179 °C

Sure, the documented melting point for `O=c1nc(-c2ccccn2)sc2ccc(OCCCO)cc12` is 196.6 to 197.7 °C

// melting point lookup, compound = `CN(C)/C=N/S(=O)(=O)CC(C)(C)COc1cccc(-c2nc(=O)c3ccccc3s2)n1` , result: 174.5 to 175.3 °C

Lab note: measured melting point of `O=C(O)CS(=O)(=O)c1cccc(-c2nc(=O)c3ccccc3s2)n1` was 192 to 193.5 °C

Lab note: measured melting point of `O=c1nc(-c2cccc(CSCc3ccccc3)n2)sc2ccccc12` was 126 to 128 °C

// recorded melting point for `CSc1ccc(-c2nc(=O)c3ccccc3s2)cn1` : 167.9 to 169.9 °C

----------
Listing of recorded melting point by entry.

CCOC(=O)CSc1cccc(-c2nc(=O)c3ccccc3s2)n1	124.5 to 125 °C
Cc1cccc2c(=O)nc(-c3ccccn3)sc12	197.8 to 198.5 °C
O=C(O)CCc1ccc(-c2nc(=O)c3ccccc3s2)nc1	232.2 to 232.4 °C
COc1ccnc(-c2nc(=O)c3ccccc3s2)c1	214.1 to 214.6 °C
Cc1ccc([S+]([O-])c2cccc(-c3nc(=O)c4ccccc4s3)n2)cc1 (stereo not shown)	228 to 228.2 °C

# molecule `CCS(=O)(=O)c1cccc(-c2nc(=O)c3ccccc3s2)n1` ; its melting point = 201.5 to 203 °C

Short answer for `O=c1nc(-c2cnc3ccccc3c2)sc2ccccc12` : melting point was 216 to 217 °C

Reference for the values: patent US7767665B2
